assayed.target: indoleamine 2, 3-dioxygenase (IDO1) (Homo sapiens, UniProt P14902)
Sequence (P14902 whole entry): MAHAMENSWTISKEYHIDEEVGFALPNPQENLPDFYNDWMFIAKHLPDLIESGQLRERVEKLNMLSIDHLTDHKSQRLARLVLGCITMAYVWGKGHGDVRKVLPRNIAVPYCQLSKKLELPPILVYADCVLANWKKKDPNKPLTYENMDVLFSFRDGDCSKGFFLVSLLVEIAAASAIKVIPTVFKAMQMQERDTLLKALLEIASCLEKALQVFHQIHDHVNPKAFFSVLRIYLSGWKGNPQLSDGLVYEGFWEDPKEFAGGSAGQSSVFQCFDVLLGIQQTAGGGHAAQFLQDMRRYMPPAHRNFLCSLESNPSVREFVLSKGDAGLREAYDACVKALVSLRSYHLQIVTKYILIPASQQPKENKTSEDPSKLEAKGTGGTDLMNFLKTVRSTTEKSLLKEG
assay.remarks: PBMC IDOi assay (kynurenine detection via mass spectrometry)
Assay type: cell-based
condition.info: human PBMC stimulated with IFN-γ and LPS; kynurenine by mass spectrometry; 2 days incubation
Where a name gives a salt, the structure may show the parent alone.
experimental.readout: EC50 (nM)

Examples with their reported EC50 follow.
[[record]]
compound = "CC(C)CN(c1ccc(-c2ccccc2C(=O)O)cc1Nc1nc2ccccc2o1)C1CCCCC1"
assayed_target = "indoleamine 2, 3-dioxygenase (IDO1) (Homo sapiens, UniProt P14902)"
number = 39.8

[[record]]
compound = "CCCC(CCC)Oc1ccc(-c2ccccc2-c2nnn[nH]2)cc1Nc1nc2ccccc2o1"
assayed_target = "indoleamine 2, 3-dioxygenase (IDO1) (Homo sapiens, UniProt P14902)"
number = 63.1

[[record]]
compound = "C/C=C/Cc1cc(-c2ccccc2-c2nnn[nH]2)cc(Nc2nc3ccccc3o2)c1OCCC [Example 13, Trifluoroacetic acid Salt]"
assayed_target = "indoleamine 2, 3-dioxygenase (IDO1) (Homo sapiens, UniProt P14902)"
number = 7.94

[[record]]
compound = "CC(C)CN(c1ccc(-c2ccccc2-c2nnn[nH]2)cc1Nc1nnc(C2CC2)s1)C1CCCCC1"
assayed_target = "indoleamine 2, 3-dioxygenase (IDO1) (Homo sapiens, UniProt P14902)"
number = 1.58

[[record]]
compound = "Cc1cc(Nc2cc(-c3ccccc3-c3nn[nH]n3)ccc2N(CC(C)C)CC(C)C)no1"
assayed_target = "indoleamine 2, 3-dioxygenase (IDO1) (Homo sapiens, UniProt P14902)"
number = 39.8

[[record]]
compound = "CCCCc1cc(-c2ccccc2-c2nnn[nH]2)cc(Nc2nc3ccccc3o2)c1OCCC"
assayed_target = "indoleamine 2, 3-dioxygenase (IDO1) (Homo sapiens, UniProt P14902)"
number = 7.94

[[record]]
compound = "CC(C)CN(c1ccc([C@H]2C[C@H]2C(=O)O)cc1Nc1nc(C(F)(F)F)ns1)C1CCCCC1 (relative stereo)"
assayed_target = "indoleamine 2, 3-dioxygenase (IDO1) (Homo sapiens, UniProt P14902)"
number = 1.26

[[record]]
compound = "CC(C)CN(c1ccc(-c2ccccc2-c2nnn[nH]2)cc1Nc1nc2ccccc2o1)C1CCCCC1"
assayed_target = "indoleamine 2, 3-dioxygenase (IDO1) (Homo sapiens, UniProt P14902)"
number = 15.8


(a) CC(C)CN(c1ccc(-c2ccccc2-c2nnn[nH]2)cc1Nc1nc2ccccc2[nH]1)C1CCCCC1
(b) CC(C)CN(c1ccc(-c2ccccc2C(=O)O)cc1Nc1nc(Cl)ns1)C1CCCCC1
[ask] Param pair: a , b . Output: the one whose EC50 is numerically greater. Your choice should be expressed through its label.
[reply] b

(a) CC(C)CN(c1ccc(-c2ccccc2C(=O)O)cc1Nc1nnc(C2CC2)s1)C1CCCCC1
(b) CC(C)CN(c1ccc(-c2ccccc2-c2nnn[nH]2)cc1Nc1nc(C(F)(F)F)ns1)C1CCCCC1
[ask] Param pair: a , b . Output: the one whose EC50 is numerically greater. Your choice should be expressed through its label.
[reply] b

====

assayed.target: indoleamine 2, 3-dioxygenase (IDO1) (Homo sapiens, UniProt P14902)
assay.remarks: HeLa IDOi assay (kynurenine detection via mass spectrometry)
Format: cell-based
Parameters: human epithelial HeLa cells (CCL-2; host or cells: HeLa cells stimulated with human IFN-γ
condition.info: human epithelial HeLa cells stimulated with IFN-γ; kynurenine by mass spectrometry; 2 days incubation
Where a name gives a salt, the structure may show the parent alone.
experimental.readout: EC50 (nM)

Examples with their reported EC50 follow.
[[record]]
compound = "CC(C)CN(c1ccc([C@H]2C[C@H]2C(=O)O)cc1Nc1nc2ccccc2o1)C1CCCCC1 (relative stereo)"
number = 100

[[record]]
compound = "Cc1cc(Nc2cc(-c3ccccc3-c3nn[nH]n3)ccc2N(CC(C)C)CC(C)C)no1"
number = 158

[[record]]
compound = "CC(C)CN(c1ccc(-c2ccccc2-c2nnn[nH]2)cc1Nc1nc2ccccc2o1)C1CCCCC1"
number = 25.1

[[record]]
compound = "C/C=C/Cc1cc(-c2ccccc2-c2nnn[nH]2)cc(Nc2nc(Cl)ns2)c1OCCC [Example 15, Trifluoroacetic acid Salt]"
number = 126

[[record]]
compound = "CC(C)CN(c1ccc(-c2ccccc2C(=O)O)cc1Nc1nc2ccccc2[nH]1)C1CCCCC1"
number = 7.94


(a) CC(C)CN(c1ccc(-c2ccccc2C(=O)O)cc1Nc1nc2ccccc2o1)C1CCCCC1
(b) CCCCc1cc(-c2ccccc2-c2nnn[nH]2)cc(Nc2nc3ccccc3o2)c1OCCC
[ask] Sorting ascending by EC50, which comes first: a or b ? Your choice should be expressed through its label.
[reply] b

(A) CC(C)CN(c1ccc([C@H]2C[C@H]2C(=O)O)cc1Nc1nc(-c2ccccc2)co1)C1CCCCC1 (relative stereo)
(B) CC(C)CN(c1ccc(-c2ccccc2C(=O)O)cc1Nc1nc(C(F)(F)F)ns1)C1CCCCC1
(C) CC(C)CN(c1ccc(-c2ccccc2C(=O)O)cc1Nc1nc(Cl)ns1)C1CCCCC1
[ask] Order the records so the highest EC50 appears first and the lowest last. Write the labels in rank order as requested.
[reply] A, C, B

====

assayed.target: indoleamine 2, 3-dioxygenase (IDO1) (Homo sapiens)
assay.remarks: HeLa IDOi assay (kynurenine detection via mass spectrometry)
Format: cell-based
Parameters: human epithelial HeLa cells (CCL-2; host or cells: HeLa cells stimulated with human IFN-γ
condition.info: human epithelial HeLa cells stimulated with IFN-γ; kynurenine by mass spectrometry; 2 days incubation
Counter-ions that a name gives are not always drawn.
experimental.readout: EC50 (nM)

Examples with their reported EC50 follow.
[[record]]
molecule = "CC(C)CN(c1ccc([C@H]2C[C@H]2C(=O)O)cc1Nc1nc2ccccc2s1)C1CCCCC1 (relative stereo)"
number = 15.8

[[record]]
molecule = "CC(C)CN(c1ccc([C@H]2C[C@H]2C(=O)O)cc1Nc1nc(C(F)(F)F)ns1)C1CCCCC1 (relative stereo)"
number = 10

[[record]]
molecule = "C/C=C/Cc1cc(-c2ccccc2-c2nnn[nH]2)cc(Nc2nc3ccccc3o2)c1OCCC [Example 13, Trifluoroacetic acid Salt]"
number = 3.98


(a) CC(C)CN(c1ccc(-c2ccccc2C(=O)O)cc1Nc1nnc(C2CC2)s1)C1CCCCC1
(b) CC(C)CN(c1ccc([C@H]2C[C@H]2C(=O)O)cc1Nc1nc(Cl)ns1)C1CCCCC1 (relative stereo)
(c) CC(C)CN(c1ccc(C2CC2C(=O)O)cc1Nc1nc2ccccc2[nH]1)C1CCCCC1 (centres unmarked)
(d) CCCC(CCC)Oc1ccc(-c2ccccc2-c2nnn[nH]2)cc1Nc1nc2ccccc2o1
(e) CC(C)CN(c1ccc(-c2ccccc2-c2nnn[nH]2)cc1Nc1nnc(C2CC2)s1)C1CCCCC1
[ask] Sort (5 molecules) by EC50: min first. Write the labels in rank order as requested.
[reply] a, e, c, b, d
(a: 2 nM, e: 3.16 nM, c: 5.01 nM, b: 10 nM, d: 100 nM)

====

assayed.target: indoleamine 2, 3-dioxygenase (IDO1) (Homo sapiens, UniProt P14902)
assay.remarks: HeLa IDOi assay (kynurenine detection via mass spectrometry)
Type: cell-based
Set-up: human epithelial HeLa cells (CCL-2; host or cells: HeLa cells stimulated with human IFN-γ
condition.info: human epithelial HeLa cells stimulated with IFN-γ; kynurenine by mass spectrometry; 2 days incubation
Procedure: Compounds of the present invention were tested via high-throughput cellular assays utilizing detection of kynurenine via mass spectrometry and cytotoxicity as end-points. […] Cellular toxicity due to the effect of compound treatment was measured using CellTiter-Glo® reagent (CTG) (Promega Corporation, Madison, Wis.), which is based on luminescent detection of ATP, an indicator of metabolically active cells. […]
experimental.readout: EC50 (nM)

(P) CC(C)CN(c1ccc(-c2ccccc2-c2nnn[nH]2)cc1Nc1nc(Cl)ns1)C1CCCCC1
(Q) CC(C)CN(c1ccc(-c2ccccc2-c2nnn[nH]2)cc1Nc1nc(C(F)(F)F)ns1)C1CCCCC1
(R) CC(C)CN(c1ccc(-c2ccccc2-c2nnn[nH]2)cc1Nc1nc2ccccc2[nH]1)C1CCCCC1
[ask] From the records above, write out the order of decreasing EC50. Write the labels in rank order as requested.
[reply] P, R, Q
